Target: T1, human L1CAM on cells (human, UniProt P32004 20-1257)
T1 construct: Overexpressed on stably transfected HEK293T cells or endogenous on MCF-7 and MDA-MB-231 cells; also called HEK293T-hL1CAM
T1 sequence (P32004 20-1257): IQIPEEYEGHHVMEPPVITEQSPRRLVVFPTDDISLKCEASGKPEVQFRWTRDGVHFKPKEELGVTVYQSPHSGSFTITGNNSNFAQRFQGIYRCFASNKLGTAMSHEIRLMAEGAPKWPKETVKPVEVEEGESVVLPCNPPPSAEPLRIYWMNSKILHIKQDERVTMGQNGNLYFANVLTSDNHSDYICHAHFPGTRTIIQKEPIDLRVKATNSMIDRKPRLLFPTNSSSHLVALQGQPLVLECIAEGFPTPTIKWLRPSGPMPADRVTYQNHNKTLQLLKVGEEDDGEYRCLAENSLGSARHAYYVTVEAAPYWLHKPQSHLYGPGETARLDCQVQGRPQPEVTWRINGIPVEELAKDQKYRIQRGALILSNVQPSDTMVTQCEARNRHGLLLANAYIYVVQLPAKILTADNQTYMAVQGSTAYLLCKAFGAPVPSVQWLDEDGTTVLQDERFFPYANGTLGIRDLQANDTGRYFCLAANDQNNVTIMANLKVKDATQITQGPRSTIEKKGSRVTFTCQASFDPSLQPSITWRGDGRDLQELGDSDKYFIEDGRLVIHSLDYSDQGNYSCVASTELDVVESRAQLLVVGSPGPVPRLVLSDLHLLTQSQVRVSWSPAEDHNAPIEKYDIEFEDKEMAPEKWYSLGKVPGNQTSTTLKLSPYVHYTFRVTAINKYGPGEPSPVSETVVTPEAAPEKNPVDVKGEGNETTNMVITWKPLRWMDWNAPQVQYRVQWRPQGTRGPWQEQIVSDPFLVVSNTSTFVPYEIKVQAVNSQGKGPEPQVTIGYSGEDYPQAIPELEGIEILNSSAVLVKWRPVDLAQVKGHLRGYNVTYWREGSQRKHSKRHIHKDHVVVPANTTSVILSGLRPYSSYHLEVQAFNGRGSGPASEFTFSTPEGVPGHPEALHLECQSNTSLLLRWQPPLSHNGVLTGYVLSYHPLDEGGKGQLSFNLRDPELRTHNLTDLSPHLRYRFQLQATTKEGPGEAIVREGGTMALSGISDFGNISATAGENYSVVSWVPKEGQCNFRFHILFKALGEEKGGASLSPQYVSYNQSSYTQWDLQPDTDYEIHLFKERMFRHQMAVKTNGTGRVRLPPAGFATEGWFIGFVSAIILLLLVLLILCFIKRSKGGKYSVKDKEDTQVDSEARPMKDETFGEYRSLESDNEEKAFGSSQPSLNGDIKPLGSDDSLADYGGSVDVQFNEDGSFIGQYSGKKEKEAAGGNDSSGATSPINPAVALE
Assay: flow cytometry, HEK293T cells overexpressing human L1CAM
pEC50: −log10 of the molar value.

[
  {
    "binder": "14A10 (antibody, V domains shown, mAb from AlivaMab mice) VH: EVQMVESGGGLVQPGGSLRLSCAAPGFIFSSYNMNWVRQAPGKGLEWVSYISSSSSTTYYADSVKGRFTISRDNAKNSLYLQMNSLRDEDTAVYYCASLYSGYDYYYYYGMDVWGQGTTVTVSS VL: DIVMTQTPLSSPVSLGQPASISCRSSQSLVHSDGNTYLSWLQQRPGQPPRVLIYKISKRFSGVPDRFSGSGAGTDFTLKISRVEAEDVGVYYCMQATQFPFTFGPGTKVDIK",
    "pEC50": 8.46
  },
  {
    "binder": "143G03 (antibody, V domains shown, mAb from wild-type mice; also called 143G03 WT; murine 143G03 mAb) VH: QVQLRQSGAELVRPGTSVKMSCKASGYTFTNYYIHWVKQRPGQGLEWIGKIGPGSGSPYYNGMFKDKATLTVDTSSSTAYMQLSSLTSEDSAVYFCARWLLPFDYWGQGTTLTVSS VL: QIVLSQSPGILSASPGEKVTMTCRASSSVNYMHWYQQKSGSSPKPWIFATSILASGVPPRFSGSGSGTSYSLTISSVEAEDTATYYCQQFSSDPLTFGAGTKLELK",
    "pEC50": 9.00
  },
  {
    "binder": "13F04 (antibody, V domains shown, mAb from wild-type mice, purified from the supernatant of a hybridoma clone; also called L1CAM mAb 13F04) VH: QVQLQQPGAELVKPGASVKLSCKASGYIFISYWMHWVKQRPGQGLEWIGEINPRNGRTNYNEKFKSKATLTVDKSSSTAYMQLTSLTSEDSAVYYCARGGDYGGSFDYWGQGTTLTVSS VL: DIVLTQSPASLAVSLGQRATISCRASESVDSYGNSFMHWYQQKPGQPPKLLIYRASNLESGIPARFSGSGSRTDFTLTVNPVEADDVATYYCQQSNEDPWTFGGGTKLEIK",
    "pEC50": 8.40
  },
  {
    "binder": "13G04 (antibody, V domains shown, mAb from AlivaMab mice, purified from hybridoma supernatant) VH: QVQLVQSGAEVKKPGASVKVSCKASGYTFIGYYLHWVRQAPGQGLEWMGWINPNSGGTNSAQKFQGRVTMTRDTSISTTYMDLSRLRSDDTAVYYCARGGLERRDAFDIWGQGTLVTVSS VL: DIQMTQSPSTLSASVGDRVTITCRASQSISNWLAWYQQKPGKAPNLLIYKASSLESGVPSRFSGSGSGTEFTLTISSLQPDDFATYYCQQYDTYRTFGQGTKVEIK",
    "pEC50": 8.32
  }
]

Origin of measurements: patent US20250340636A1
